Documented Activity across a set of compounds
- Test system: Rattus norvegicus
- assay-notes: Antidiuretic activity in fasted and hydrated Wistar rat assessed as compound potency to yield antidiuresis time of 60 mins required for urinary excretion of half the water load at 0.001 to 100 nmol/kg, sc administered immediately after water loading by modified Burn test relative to 1-deamino-8-D-arginine vasopressin
- Assay type: functional, Urine

{"compound": "N=C(N)NCCC[C@@H](NC(=O)[C@@H]1CCCN1C(=O)[C@@H]1CSSCCC(=O)N[C@@H](C(c2ccccc2)c2ccccc2)C(=O)N[C@@H](Cc2ccccc2)C(=O)N[C@@H](CCC(N)=O)C(=O)N[C@@H](CC(N)=O)C(=O)N1)C(=O)NCC(N)=O", "target-or-test-system": "Rattus norvegicus", "result-unit": "%", "result-comparator": "=", "Activity": 0.7}
{"compound": "CC(C)[C@@H]1NC(=O)[C@H](Cc2ccccc2)NC(=O)[C@H](C(c2ccccc2)c2ccccc2)NC(=O)CCSSC[C@@H](C(=O)N2CCC[C@H]2C(=O)N[C@H](CCCNC(=N)N)C(=O)NCC(N)=O)NC(=O)[C@H](CC(N)=O)NC1=O (stereo in doubt; form 1)", "target-or-test-system": "Rattus norvegicus", "result-unit": "%", "result-comparator": "=", "Activity": 2.2}
{"compound": "N=C(N)NCCC[C@H](NC(=O)[C@@H]1CCCN1C(=O)[C@@H]1CSSC2(CCCCC2)CC(=O)N[C@@H](C(c2ccccc2)c2ccccc2)C(=O)N[C@@H](Cc2ccccc2)C(=O)N[C@@H](CCC(N)=O)C(=O)N[C@@H](CC(N)=O)C(=O)N1)C(=O)NCC(N)=O", "target-or-test-system": "Rattus norvegicus", "result-unit": "%", "result-comparator": "<", "Activity": 0.1}
{"compound": "N=C(N)NCCC[C@H](NC(=O)[C@@H]1CCCN1C(=O)[C@@H]1CSSC[C@H](N)C(=O)N[C@@H](Cc2ccc(O)cc2)C(=O)N[C@@H](Cc2ccccc2)C(=O)N[C@@H](CCC(N)=O)C(=O)N[C@@H](CC(N)=O)C(=O)N1)C(=O)NCC(N)=O [VASOPRESSIN]", "target-or-test-system": "Rattus norvegicus", "result-unit": "%", "result-comparator": "=", "Activity": 10}
{"compound": "N=C(N)NCCC[C@@H](NC(=O)[C@@H]1CCCN1C(=O)[C@@H]1CSSCCC(=O)N[C@@H](Cc2ccc(O)cc2)C(=O)N[C@@H](Cc2ccccc2)C(=O)N[C@@H](CCC(N)=O)C(=O)N[C@@H](CC(N)=O)C(=O)N1)C(=O)NCC(N)=O [DESMOPRESSIN]", "target-or-test-system": "Rattus norvegicus", "result-unit": "%", "result-comparator": "=", "Activity": 100}
{"compound": "CC(C)[C@@H]1NC(=O)[C@H](Cc2ccccc2)NC(=O)[C@H](C(c2ccccc2)c2ccccc2)NC(=O)CCSSC[C@@H](C(=O)N2CCC[C@H]2C(=O)N[C@H](CCCNC(=N)N)C(=O)NCC(N)=O)NC(=O)[C@H](CC(N)=O)NC1=O (stereo in doubt; form 2)", "target-or-test-system": "Rattus norvegicus", "result-unit": "%", "result-comparator": "=", "Activity": 100}
{"compound": "N=C(N)NCCC[C@H](NC(=O)[C@@H]1CCCN1C(=O)[C@@H]1CSSCCC(=O)NC(C(c2ccccc2)c2ccccc2)C(=O)N[C@@H](Cc2ccccc2)C(=O)N[C@@H](CCC(N)=O)C(=O)N[C@@H](CC(N)=O)C(=O)N1)C(=O)NCC(N)=O (single isomer, unassigned)", "target-or-test-system": "Rattus norvegicus", "result-unit": "%", "result-comparator": "=", "Activity": 10}
{"compound": "CC(C)[C@@H]1NC(=O)[C@H](Cc2ccccc2)NC(=O)[C@H](C(c2ccccc2)c2ccccc2)NC(=O)CCSSC[C@@H](C(=O)N2CCC[C@H]2C(=O)N[C@@H](CCCNC(=N)N)C(=O)NCC(N)=O)NC(=O)[C@H](CC(N)=O)NC1=O", "target-or-test-system": "Rattus norvegicus", "result-unit": "%", "result-comparator": "=", "Activity": 2.2}
